Target: UniProt:Q13639
Sequence (Q13639 1-387 isoform Q13639-2): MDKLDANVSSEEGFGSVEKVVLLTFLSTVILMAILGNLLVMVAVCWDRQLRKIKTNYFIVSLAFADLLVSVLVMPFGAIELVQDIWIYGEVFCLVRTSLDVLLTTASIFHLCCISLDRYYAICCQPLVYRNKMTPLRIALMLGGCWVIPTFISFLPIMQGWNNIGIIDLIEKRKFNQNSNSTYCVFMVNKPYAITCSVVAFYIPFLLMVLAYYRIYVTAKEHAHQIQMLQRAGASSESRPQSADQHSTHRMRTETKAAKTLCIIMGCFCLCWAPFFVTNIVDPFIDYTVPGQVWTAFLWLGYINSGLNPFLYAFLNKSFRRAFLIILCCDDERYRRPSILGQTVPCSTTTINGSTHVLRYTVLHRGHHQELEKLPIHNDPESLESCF
Assay: Evaluation of agonistic activity in CHO-K1 cells expressing human 5-HT4(a) (GeneBIAzer HTR4-CRE-bla CHO-K1 cells, beta-lactamase fluorescence ratio, EC50 from 8 concentrations)
Where a name gives a salt, the structure may show the parent alone.
PROPERTY: EC50 (nM)
Express your answer in nM, writing the number without its unit.

Prompt: Returns the measured EC50 for the input compound. Input: "CCCc1cc(N2CCNC[C@H]2C)nc(Nc2ccc(F)c(C#N)c2)n1"
Response: 0.051

Prompt: Returns the measured EC50 for the input compound. Input: "CCCc1cc(N2CCC[C@@H](NCC)C2)nc(Nc2ccc(C)c(C#N)c2)n1"
Response: 0.008

Prompt: Returns the measured EC50 for the input compound. Input: "CCCCc1cc(N2CCC[C@@H](N)C2)nc(Nc2ccc(C)c(F)c2)n1"
Response: 0.448

Prompt: Returns the measured EC50 for the input compound. Input: "CCCCc1cc(N2CCC[C@@H](N)C2)nc(Nc2ccc(F)c(C(F)(F)F)c2)n1"
Response: 0.102

Prompt: Returns the measured EC50 for the input compound. Input: "CCCc1cc(N2CCC[C@H](NCc3cc(C)c(C)o3)C2)nc(Nc2ccc(C)c(C#N)c2)n1"
Response: 0.148

Prompt: Returns the measured EC50 for the input compound. Input: "CCCc1cc(N2CCNC[C@H]2C)nc(Nc2ccc(Cl)c([N+](=O)[O-])c2)n1"
Response: 0.077

Prompt: Returns the measured EC50 for the input compound. Input: "CCCCc1cc(N2CCC[C@@H](NC)C2)nc(Nc2ccc(N)c(C(F)(F)F)c2)n1"
Response: 0.0019

Prompt: Returns the measured EC50 for the input compound. Input: "CCCc1cc(N2CCCCC2)nc(Nc2ccc(Cl)c([N+](=O)[O-])c2)n1"
Response: 0.27

Prompt: Returns the measured EC50 for the input compound. Input: "CCCc1cc(N2CCC[C@@H](NC(=O)CO)C2)nc(Nc2ccc(C)c(Cl)c2)n1"
Response: 0.057

Prompt: Returns the measured EC50 for the input compound. Input: CCCc1cc(N2CCCCC2CC)nc(Nc2cnc3ccccc3c2)n1 (stereo not drawn)
Response: 0.31

Prompt: Returns the measured EC50 for the input compound. Input: CCCc1cc(N2CCC[C@H](N)C2)nc(Nc2cccc([N+](=O)[O-])c2)n1 [Example 151, dihydrochloride]
Response: 0.361

Prompt: Returns the measured EC50 for the input compound. Input: "CCCc1cc(N2CCC[C@@H](NC(=O)CO)C2)nc(Nc2ccc(C)c(C(F)(F)F)c2)n1"
Response: 0.038

Prompt: Returns the measured EC50 for the input compound. Input: "CCCc1cc(N2CCNC[C@H]2C)nc(Nc2ccc(C)c([N+](=O)[O-])c2)n1"
Response: 0.011

Prompt: Returns the measured EC50 for the input compound. Input: CCCc1cc(N2CCCC3CCCCC32)nc(Nc2cnc3ccccc3c2)n1 (stereo not drawn)
Response: 0.14

Prompt: Returns the measured EC50 for the input compound. Input: "CCCc1cc(N2CCC[C@H](NCc3cccs3)C2)nc(Nc2ccc(C)c(C#N)c2)n1"
Response: 0.125
